System: barnyardgrass (Echinochloa crus-galli)
experimental-protocol: Test D pre-/postemergence plant response
Type: in vivo
test-conditions: Preemergence, 125 g ai/ha; scale 0 to 100
Criterion: Plant response rating, Barnyardgrass strictly under 40. Met: criterion met. Not met: criterion not met.

>>> print(df.to_string())
                                   compound       answer_label
0  O=C1CCCC(O)=C1C(=O)c1cnc(C2CC2)n(-c2ccccc2)c1=O [Compound 87]  criterion not met
1  Cc1ccc(Cl)cc1-n1c(-c2ccccc2)ncc(C(=O)C2=C(O)CCCC2=O)c1=O [Compound 52]      criterion met
2  O=C1CCCC(O)=C1C(=O)c1cnc(-c2cccnc2)n(-c2ccccc2)c1=O [Compound 113]      criterion met
3  Cc1c(F)cccc1-n1c(-c2ccccc2)ncc(C(=O)C2=C(O)CCCC2=O)c1=O [Compound 47]      criterion met
4  O=C1CCCC(O)=C1C(=O)c1cnc(-c2cccs2)n(-c2ccccc2)c1=O [Compound 66]  criterion not met
